conditions: dog, in vivo, iv
experimental_endpoint: Cmax (µg/mL)
Quick note: give the figure in µg/mL, leave out the unit.

Query: Look up Cmax: C[C@H](CCCC(C)(C)O)[C@H]1CC[C@H]2[C@@H]3CC=C4C[C@@H](OS(=O)(=O)[O-])CC[C@]4(C)[C@H]3CC[C@]12C.[Na+] [25HC3S, 5-cholesten-3, 25-diol, 3-sulfate]
Reply: 0.439

====

conditions: dog, in vivo, sc
experimental_endpoint: Cmax
Record the result as number plus unit.

Query: I would be grateful if you could share the reported Cmax for C[C@H](CCCC(C)(C)O)[C@H]1CC[C@H]2[C@@H]3CC=C4C[C@@H](OS(=O)(=O)[O-])CC[C@]4(C)[C@H]3CC[C@]12C.[Na+] [25HC3S, 5-cholesten-3, 25-diol, 3-sulfate] .
Reply: 3940 ng/mL
